Target: hexokinase II (HKII) (Homo sapiens, UniProt P52789)
Construct: recombinant HKII expressed in E. coli, first 16 aa from the N-terminal removed
Sequence (P52789 17-917): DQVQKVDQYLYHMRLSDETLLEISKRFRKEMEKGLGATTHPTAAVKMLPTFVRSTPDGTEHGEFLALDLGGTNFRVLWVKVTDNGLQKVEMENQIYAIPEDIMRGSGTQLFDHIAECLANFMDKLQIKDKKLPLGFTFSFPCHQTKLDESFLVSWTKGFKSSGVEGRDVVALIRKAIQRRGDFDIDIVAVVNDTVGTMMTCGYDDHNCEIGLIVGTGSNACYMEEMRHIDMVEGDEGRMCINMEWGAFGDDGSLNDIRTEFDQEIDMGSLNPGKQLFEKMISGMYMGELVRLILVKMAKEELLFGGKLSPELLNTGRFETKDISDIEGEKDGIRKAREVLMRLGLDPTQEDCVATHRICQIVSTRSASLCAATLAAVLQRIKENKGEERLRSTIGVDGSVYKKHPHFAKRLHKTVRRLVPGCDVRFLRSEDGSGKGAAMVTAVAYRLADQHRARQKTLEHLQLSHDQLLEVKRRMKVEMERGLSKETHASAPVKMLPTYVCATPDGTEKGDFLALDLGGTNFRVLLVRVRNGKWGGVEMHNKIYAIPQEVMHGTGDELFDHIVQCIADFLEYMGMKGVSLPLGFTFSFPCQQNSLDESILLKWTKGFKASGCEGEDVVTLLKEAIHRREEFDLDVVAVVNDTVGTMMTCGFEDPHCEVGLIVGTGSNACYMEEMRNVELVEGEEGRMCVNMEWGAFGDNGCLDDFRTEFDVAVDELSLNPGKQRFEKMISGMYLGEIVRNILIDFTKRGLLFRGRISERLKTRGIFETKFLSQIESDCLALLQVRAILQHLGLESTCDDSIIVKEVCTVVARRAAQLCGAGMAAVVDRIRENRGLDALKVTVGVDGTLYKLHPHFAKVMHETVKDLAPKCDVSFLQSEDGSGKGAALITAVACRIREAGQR
Assay: […] NMR CPMG transverse relaxation titration
Details: read-out: Kα [mol m^-3]
value.type: pKd
Please express pKd as -log10 of the molar concentration.

The compound identified as OC[C@H]1OC(O)C(F)(F)[C@@H](O)[C@@H]1O (mixture of isomers) registered its pKd at 3.02
